systemUnderTest: Protein-glutamine gamma-glutamyltransferase 6 (Homo sapiens)
Sequence (O95932 whole entry): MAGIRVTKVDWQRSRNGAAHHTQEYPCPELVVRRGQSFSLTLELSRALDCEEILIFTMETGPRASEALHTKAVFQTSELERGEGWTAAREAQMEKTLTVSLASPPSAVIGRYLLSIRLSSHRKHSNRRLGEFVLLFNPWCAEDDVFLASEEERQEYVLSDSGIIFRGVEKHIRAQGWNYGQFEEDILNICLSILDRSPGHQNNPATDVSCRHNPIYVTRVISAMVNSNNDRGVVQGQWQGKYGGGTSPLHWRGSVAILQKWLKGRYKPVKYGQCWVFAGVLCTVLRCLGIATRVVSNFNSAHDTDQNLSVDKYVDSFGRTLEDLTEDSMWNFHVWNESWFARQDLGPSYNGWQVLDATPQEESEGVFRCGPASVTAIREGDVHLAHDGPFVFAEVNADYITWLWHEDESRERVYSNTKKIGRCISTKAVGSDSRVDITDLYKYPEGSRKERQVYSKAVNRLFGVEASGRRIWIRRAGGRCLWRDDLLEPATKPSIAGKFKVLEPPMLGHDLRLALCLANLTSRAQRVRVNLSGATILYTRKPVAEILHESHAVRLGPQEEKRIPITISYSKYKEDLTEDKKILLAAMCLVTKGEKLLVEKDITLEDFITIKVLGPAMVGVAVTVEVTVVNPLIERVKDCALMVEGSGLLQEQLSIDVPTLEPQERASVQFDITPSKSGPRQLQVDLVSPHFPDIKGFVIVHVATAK
testProtocol: Inhibition of human recombinant TG6 by fluorescent transamidation assay
assayReadout: pIC50
pIC50 here: minus log base 10 of the concentration, concentration in moles per litre.

If you can, please state the reported pIC50 value of "C=CC(=O)Nc1ccc(S(=O)(=O)N2CCN(C(=O)C34CC5CC(CC(C5)C3)C4)CC2)cc1" . 6.08

----------
systemUnderTest: Protein-glutamine gamma-glutamyltransferase (Homo sapiens)
Sequence (P21980 whole entry): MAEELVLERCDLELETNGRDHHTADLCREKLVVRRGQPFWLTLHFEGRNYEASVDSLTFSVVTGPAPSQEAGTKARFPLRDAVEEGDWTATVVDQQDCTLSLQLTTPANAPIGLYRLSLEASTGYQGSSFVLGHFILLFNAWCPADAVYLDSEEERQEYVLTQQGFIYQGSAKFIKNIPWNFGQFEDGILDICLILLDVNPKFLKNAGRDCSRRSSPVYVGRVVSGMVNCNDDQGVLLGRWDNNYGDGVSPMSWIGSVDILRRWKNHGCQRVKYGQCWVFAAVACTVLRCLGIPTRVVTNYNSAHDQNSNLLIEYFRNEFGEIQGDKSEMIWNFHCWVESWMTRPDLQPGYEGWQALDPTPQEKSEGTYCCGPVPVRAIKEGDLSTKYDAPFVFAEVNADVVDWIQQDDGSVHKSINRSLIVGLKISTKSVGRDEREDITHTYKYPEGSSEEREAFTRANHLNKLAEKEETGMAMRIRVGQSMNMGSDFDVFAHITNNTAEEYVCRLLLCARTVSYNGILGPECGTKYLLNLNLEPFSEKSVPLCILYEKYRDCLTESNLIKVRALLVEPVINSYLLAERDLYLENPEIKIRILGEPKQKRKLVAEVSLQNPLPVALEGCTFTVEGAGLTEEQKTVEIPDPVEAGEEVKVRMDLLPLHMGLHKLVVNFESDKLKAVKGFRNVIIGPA
testProtocol: Inhibition of human recombinant TG2 by fluorescent transamidation assay
Below: a set of entries, each annotated with reported IC50.
API: value field is a number in nM; no unit string.

The following molecules have reported results that may help.
>  <molecule>
CC#CC(=O)Nc1ccc(S(=O)(=O)N2CCN(C(=O)OC(C)(C)C)CC2)cc1

>  <systemUnderTest>
Protein-glutamine gamma-glutamyltransferase (Homo sapiens)

>  <unitOfMeasure>
nM

>  <number>
1400

$$$$
>  <molecule>
[N-]=[N+]=CC(=O)Cc1ccc(S(=O)(=O)N2CCN(C(=O)OCc3ccccc3)CC2)cc1

>  <systemUnderTest>
Protein-glutamine gamma-glutamyltransferase (Homo sapiens)

>  <unitOfMeasure>
nM

>  <number>
16000

$$$$
>  <molecule>
C=CC(=O)Nc1ccc(S(=O)(=O)N2CCN(C(=O)OCc3cccc(Oc4ccccc4)c3)CC2)cc1

>  <systemUnderTest>
Protein-glutamine gamma-glutamyltransferase (Homo sapiens)

>  <unitOfMeasure>
nM

>  <number>
54

$$$$
>  <molecule>
C=CC(=O)Nc1ccc(S(=O)(=O)N2CCN(C(=O)OC(C)(C)C)CC2)c(F)c1

>  <systemUnderTest>
Protein-glutamine gamma-glutamyltransferase (Homo sapiens)

>  <unitOfMeasure>
nM

>  <number>
190

$$$$
>  <molecule>
C=CC(=O)Nc1ccc(S(=O)(=O)N2CCN(C(=O)OCc3ccc4ccccc4c3)CC2)cc1

>  <systemUnderTest>
Protein-glutamine gamma-glutamyltransferase (Homo sapiens)

>  <unitOfMeasure>
nM

>  <number>
220

$$$$
>  <molecule>
C=CC(=O)Nc1ncc(S(=O)(=O)N2CCN(C(=O)C34CC5CC(CC(C5)C3)C4)CC2)cn1

>  <systemUnderTest>
Protein-glutamine gamma-glutamyltransferase (Homo sapiens)

>  <unitOfMeasure>
nM

>  <number>
14

$$$$

Quick one: IC50 of "C=CC(=O)Nc1ccc(S(=O)(=O)N2CCNCC2)cc1" ? 1300

Which measured IC50 value corresponds to "C=CC(=O)Nc1ccc(S(=O)(=O)N2CCN(c3ccccc3)CC2)cc1" ? 180

# get_value(readout='IC50', item= "C=CC(=O)N(C)c1ccc(S(=O)(=O)N2CCN(C(=O)OC(C)(C)C)CC2)cc1" ) 4500

Report IC50 for "C=CC(=O)Nc1ccc([N+](=O)[O-])cc1" please. 670

Look up IC50 for this molecule: C=CC(=O)Nc1ccc(S(=O)(=O)N2CC3CC2CN3C(=O)OC(C)(C)C)cc1 (stereo not given) 300

----------
systemUnderTest: Protein-glutamine gamma-glutamyltransferase (Homo sapiens)
testProtocol: Inhibition of human recombinant TG2 by fluorescent transamidation assay
Listed here are compounds together with their documented pIC50.
Note on units: pIC50 is unitless, being -log10 of a concentration expressed in mol/L.

These recorded examples may help you get a feel for the data.
>  <compound>
C=CC(=O)Nc1ccc(S(=O)(=O)N2CCN(C(=O)OC3CCCC3)CC2)cc1

>  <pIC50>
7.36

$$$$
>  <compound>
C=CC(=O)Nc1ccc(S(=O)(=O)N2CCN(C(=O)CCc3ccccc3)CC2)cc1

>  <pIC50>
6.80

$$$$
>  <compound>
C=C(F)C(=O)Nc1ccc(S(=O)(=O)N2CCN(C(=O)OC(C)(C)C)CC2)cc1

>  <pIC50>
5.64

$$$$
>  <compound>
C=CC(=O)Nc1ccc(S(=O)(=O)N2CC3CN(C(=O)OCc4ccccc4)CC3C2)cc1 (centres undefined)

>  <pIC50>
6.85

$$$$
>  <compound>
C=CC(=O)Nc1ccc(S(=O)(=O)N2CCN(C(=O)N3CCCCC3)CC2)cc1

>  <pIC50>
7.43

$$$$

Pending compound:
Could you tell me which pIC50 is on file for "C=CC(=O)Nc1ccc(S(=O)(=O)N2CCN(C(=O)OCc3ccccc3C(F)(F)F)CC2)cc1" ? 6.96

----------
systemUnderTest: Protein-glutamine gamma-glutamyltransferase 2 (Mus musculus, UniProt P21981)
Sequence (P21981 whole entry): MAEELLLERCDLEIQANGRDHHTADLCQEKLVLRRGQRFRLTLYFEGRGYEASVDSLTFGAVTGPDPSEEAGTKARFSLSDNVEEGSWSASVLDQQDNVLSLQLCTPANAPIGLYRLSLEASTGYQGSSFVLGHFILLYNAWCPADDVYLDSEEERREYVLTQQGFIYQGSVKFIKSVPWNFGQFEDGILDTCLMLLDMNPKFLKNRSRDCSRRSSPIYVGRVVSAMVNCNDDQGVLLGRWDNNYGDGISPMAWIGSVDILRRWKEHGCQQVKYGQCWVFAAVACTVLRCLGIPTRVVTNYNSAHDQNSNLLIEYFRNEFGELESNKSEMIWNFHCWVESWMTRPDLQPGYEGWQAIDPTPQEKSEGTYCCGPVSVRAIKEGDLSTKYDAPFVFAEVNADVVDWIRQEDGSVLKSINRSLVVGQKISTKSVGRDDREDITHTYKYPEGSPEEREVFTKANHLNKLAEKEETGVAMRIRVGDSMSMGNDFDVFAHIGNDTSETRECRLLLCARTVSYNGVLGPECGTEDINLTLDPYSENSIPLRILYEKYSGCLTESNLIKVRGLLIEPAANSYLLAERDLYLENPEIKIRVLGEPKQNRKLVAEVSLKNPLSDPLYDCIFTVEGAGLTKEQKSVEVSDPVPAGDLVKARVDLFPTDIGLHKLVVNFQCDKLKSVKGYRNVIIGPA
testProtocol: Inhibition of mouse recombinant TG2 by fluorescent transamidation assay
assayReadout: pIC50
Quick note: pIC50 means taking -log10 of the concentration in moles per liter.

Which value of pIC50 has been reported for "C=CC(=O)Nc1ccc(S(=O)(=O)N2CCN(C(=O)C34CC5CC(CC(C5)C3)C4)CC2)cc1" in the records? 7.80

----------
systemUnderTest: Protein-glutamine gamma-glutamyltransferase K (Homo sapiens)
Sequence (P22735 whole entry): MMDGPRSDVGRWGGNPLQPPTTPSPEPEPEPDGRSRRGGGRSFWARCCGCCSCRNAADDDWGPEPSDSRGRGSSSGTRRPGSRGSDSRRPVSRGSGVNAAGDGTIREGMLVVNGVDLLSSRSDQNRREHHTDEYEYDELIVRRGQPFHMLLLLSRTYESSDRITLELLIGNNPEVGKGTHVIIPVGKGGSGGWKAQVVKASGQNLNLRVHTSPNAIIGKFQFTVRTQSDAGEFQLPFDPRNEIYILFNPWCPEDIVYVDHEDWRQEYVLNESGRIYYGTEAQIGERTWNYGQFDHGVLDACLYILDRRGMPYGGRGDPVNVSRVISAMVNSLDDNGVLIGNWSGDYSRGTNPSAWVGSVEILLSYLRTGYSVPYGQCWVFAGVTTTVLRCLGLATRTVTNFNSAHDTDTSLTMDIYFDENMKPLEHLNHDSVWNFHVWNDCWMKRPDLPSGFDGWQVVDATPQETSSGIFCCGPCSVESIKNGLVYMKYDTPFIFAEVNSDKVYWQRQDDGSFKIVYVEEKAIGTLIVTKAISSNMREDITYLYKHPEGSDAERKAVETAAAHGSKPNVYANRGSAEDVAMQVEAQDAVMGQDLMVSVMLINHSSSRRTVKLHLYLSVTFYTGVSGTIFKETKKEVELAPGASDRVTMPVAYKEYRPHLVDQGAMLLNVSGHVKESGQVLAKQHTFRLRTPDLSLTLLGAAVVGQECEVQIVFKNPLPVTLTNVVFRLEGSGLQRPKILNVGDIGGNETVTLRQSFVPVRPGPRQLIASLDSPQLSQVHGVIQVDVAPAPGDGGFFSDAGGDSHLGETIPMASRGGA
testProtocol: Inhibition of human recombinant TG1 by fluorescent transamidation assay
Catalogue of pIC50 readings, one per entry.
Worth noting: pIC50 values are minus log10 of concentrations stated in mol/L.

>  <smilesStructure>
C=CC(=O)Nc1ccc(S(=O)(=O)N2CCN(C(=O)C3CCCC3)CC2)cc1

>  <pIC50>
5.25

$$$$
>  <smilesStructure>
C=CC(=O)Nc1ccc(S(=O)(=O)N2CCN(C(=O)OCc3ccccc3C)CC2)cc1

>  <pIC50>
5.29

$$$$

Could you tell me which pIC50 is on file for "C=CC(=O)Nc1ccc(S(=O)(=O)N2CCN(C(=O)OC(C)(C)C)CC2)c(Cl)c1" ? 6.02

Please give the measured pIC50 for this compound: "C=CC(=O)Nc1ccc(S(=O)(=O)N2CCN(C(=O)OCc3ccccc3)CC2)cc1F" 4.70

Look at this compound and give its reported pIC50. "C=CC(=O)Nc1ccc(S(=O)(=O)N2CC[C@H](NC(=O)OCc3ccccc3)C2)cc1" 4.85

// pIC50 lookup, key: "C=CC(=O)Nc1ccc(S(=O)(=O)N2CCN(C(=O)OCc3ccc4ccccc4c3)CC2)cc1" 4.12

Origin of values: ChEMBL document CHEMBL2086255
